Tested on: G-clamp-N3 (biotin conjugate)
ASSAY PROTOCOL: pull-down binding Z-score (relative to library population); higher = stronger binding
EXPERIMENTAL SETUP: RNA library: Library-1 (pre-miRNA loops + repeats)
Field: pull-down binding Z-score. Provide a value for each of the sequences that follow.

CGUAGGCGUUAUGAUUUCUGACCUAUG [hsa-mir-379]    -0.994
UUUUCAGUUCCUGAGAUC [hsa-mir-4287]    -1.15
CAAUCAUGUAUAACUAAAUUUGAUUG [hsa-mir-514a-2_514a-3]    0.276
UGGUGCAAUAAUUGG [hsa-mir-1302-7]    1.95
AGCUGUUGAACUGGGAACCUGCU [hsa-mir-31]    0.781

Shifting focus to the sequence that follows.
Exercise: Fill: pull-down binding Z-score (G-clamp-N3 (biotin conjugate)) for this sequence UGUCAUUACUUUCAAUGGCA [hsa-mir-548h-2]
Key: 0.222
